Data origin: the antibiotic and cytotoxicity screens of Wong et al. (2023)

test system: HSkMC (human skeletal muscle cells); assay: cytotoxicity call (relative viability < 0.9); conditions: 10 µM
Among all 39,000 compounds or so, about 1,500 (3.8%) were called active. Many of the other results were omitted from the sample, so actives are more common in it than they were.
Outcome codes: yes (1) for active, no (0) for inactive

Smi	Assigned label
C[C@@H]1CCCCO[C@H](CN(C)S(=O)(=O)c2ccc(Cl)cc2)[C@H](C)CN([C@H](C)CO)C(=O)c2cc(NS(=O)(=O)c3ccccc3)ccc2O1	no (0)
CC(C)CC#Cc1cnc2c(c1)C(=O)N([C@H](C)CO)C[C@H](C)[C@@H](CN(C)C(=O)CN1CCOCC1)O2	no (0)
Cc1ccc(S(=O)(=O)Nc2ccc3c(c2)C(=O)N([C@H](C)CO)C[C@@H](C)[C@@H](CN(C)Cc2ccc(Cl)c(Cl)c2)O3)cc1	yes (1)
Cc1ccc(S(=O)(=O)Nc2ccc3c(c2)C(=O)N([C@H](C)CO)C[C@H](C)[C@H](CN(C)Cc2ccc(Cl)c(Cl)c2)O3)cc1	yes (1)
COc1ccc(S(=O)(=O)N(C)C[C@@H]2Oc3ccc(NC(=O)Nc4ccc(Cl)c(Cl)c4)cc3CC(=O)N([C@@H](C)CO)C[C@@H]2C)cc1Cl	yes (1)
CCCNc1nc(Nc2ccc(C#N)cc2)ncc1C#CCCCNC(=O)[C@H](C)N(C)C(=O)/C=C/CN(C)C	yes (1)
CN1C(=O)CS(=O)(=O)[C@@H]1c1ccccc1	no (0)
